Biological target: Estrogen receptor (Homo sapiens)
Sequence (whole entry): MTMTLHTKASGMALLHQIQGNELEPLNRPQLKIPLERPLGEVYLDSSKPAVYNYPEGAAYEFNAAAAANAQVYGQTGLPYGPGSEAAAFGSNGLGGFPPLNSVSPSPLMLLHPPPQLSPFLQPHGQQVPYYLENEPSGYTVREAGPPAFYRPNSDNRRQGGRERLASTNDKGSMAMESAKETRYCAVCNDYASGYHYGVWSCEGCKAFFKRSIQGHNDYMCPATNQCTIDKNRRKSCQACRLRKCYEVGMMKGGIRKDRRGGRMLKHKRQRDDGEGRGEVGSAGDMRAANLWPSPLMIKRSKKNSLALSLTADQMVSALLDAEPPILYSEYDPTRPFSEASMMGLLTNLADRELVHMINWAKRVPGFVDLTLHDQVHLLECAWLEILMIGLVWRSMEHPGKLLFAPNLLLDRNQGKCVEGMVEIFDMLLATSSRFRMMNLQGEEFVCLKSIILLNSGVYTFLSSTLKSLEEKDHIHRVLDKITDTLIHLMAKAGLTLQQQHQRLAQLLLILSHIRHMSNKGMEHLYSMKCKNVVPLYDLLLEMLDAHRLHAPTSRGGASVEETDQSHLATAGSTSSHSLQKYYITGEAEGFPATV
Assay: Displacement of [3H]estradiol from full-length human estrogen receptor alpha by radiometric assay relative to estradiol
The following ranges of RBA define the classes used here: lowest: < 2%; middle: ≥ 2% and < 3%; highest: ≥ 3%

# smiles-record, assigned-category
measured = [
    ("C[C@]12CC[C@@H]3c4ccc(O)cc4CC[C@H]3[C@@H]1CC[C@@]2(O)C#Cc1ccc(OCCCCOCCCCOCCCCOCCCCOCCCOc2ccc(C#C[C@]3(O)CC[C@H]4[C@@H]5CCc6cc(O)ccc6[C@H]5CC[C@@]43C)cc2)cc1", "lowest"),
    ("C[C@]12CC[C@@H]3c4ccc(O)cc4CC[C@H]3[C@@H]1CC[C@@]2(O)C#Cc1ccc(OCCCCOCCCCOCCCCOc2ccc(C#C[C@]3(O)CC[C@H]4[C@@H]5CCc6cc(O)ccc6[C@H]5CC[C@@]43C)cc2)cc1", "highest"),
    ("C[C@]12CC[C@@H]3c4ccc(O)cc4CC[C@H]3[C@@H]1CC[C@@]2(O)C#Cc1ccc(OCCCOCCCOCCCOc2ccc(C#C[C@]3(O)CC[C@H]4[C@@H]5CCc6cc(O)ccc6[C@H]5CC[C@@]43C)cc2)cc1", "middle"),
    ("C[C@]12CC[C@@H]3c4ccc(O)cc4CC[C@H]3[C@@H]1CC[C@@]2(O)C#Cc1ccc(OCCCOCCCOCCCOCCCOCCCOCCCOc2ccc(C#C[C@]3(O)CC[C@H]4[C@@H]5CCc6cc(O)ccc6[C@H]5CC[C@@]43C)cc2)cc1", "lowest"),
    ("C[C@]12CC[C@@H]3c4ccc(O)cc4CC[C@H]3[C@@H]1CC[C@@]2(O)C#Cc1ccc(OCCCCOCCCCOc2ccc(C#C[C@]3(O)CC[C@H]4[C@@H]5CCc6cc(O)ccc6[C@H]5CC[C@@]43C)cc2)cc1", "lowest"),
    ("C[C@]12CC[C@@H]3c4ccc(O)cc4CC[C@H]3[C@@H]1CC[C@@]2(O)C#Cc1ccc(OCCCCOCCCCOCCCCOCCCCOc2ccc(C#C[C@]3(O)CC[C@H]4[C@@H]5CCc6cc(O)ccc6[C@H]5CC[C@@]43C)cc2)cc1", "middle"),
    ("C[C@]12CC[C@@H]3c4ccc(O)cc4CC[C@H]3[C@@H]1CC[C@@]2(O)C#Cc1ccc(OCCCOCCCOCCCOCCCOc2ccc(C#C[C@]3(O)CC[C@H]4[C@@H]5CCc6cc(O)ccc6[C@H]5CC[C@@]43C)cc2)cc1", "highest"),
    ("C[C@]12CC[C@@H]3c4ccc(O)cc4CC[C@H]3[C@@H]1CC[C@@]2(O)C#Cc1ccc(CNCCOCCOCCOCCOCCOCCNCc2ccc(C#C[C@]3(O)CC[C@H]4[C@@H]5CCc6cc(O)ccc6[C@H]5CC[C@@]43C)cc2)cc1", "highest"),
    ("C[C@]12CC[C@@H]3c4ccc(O)cc4CC[C@H]3[C@@H]1CC[C@@]2(O)C#Cc1ccc(OCCCOCCCOCCCOCCCOCCCOc2ccc(C#C[C@]3(O)CC[C@H]4[C@@H]5CCc6cc(O)ccc6[C@H]5CC[C@@]43C)cc2)cc1", "middle"),
    ("C[C@]12CC[C@@H]3c4ccc(O)cc4CC[C@H]3[C@@H]1CC[C@@]2(O)C#Cc1ccc(OCCCOCCCOc2ccc(C#C[C@]3(O)CC[C@H]4[C@@H]5CCc6cc(O)ccc6[C@H]5CC[C@@]43C)cc2)cc1", "lowest"),
    ("C[C@]12CC[C@@H]3c4ccc(O)cc4CC[C@H]3[C@@H]1CC[C@@]2(O)C#Cc1ccc(OCCOCCOCCOCCOCCOCCOc2ccc(C#C[C@]3(O)CC[C@H]4[C@@H]5CCc6cc(O)ccc6[C@H]5CC[C@@]43C)cc2)cc1", "lowest"),
]
